Target: hAM2 receptor (CALCRL:RAMP3) (Homo sapiens, UniProt O60896+Q16602)
Construct: expressed in transfected cells; host or cells: GeneBLAzer CALCRL:RAMP3-CRE-bla Freestyle 293F
Sequence (Q16602 23-461): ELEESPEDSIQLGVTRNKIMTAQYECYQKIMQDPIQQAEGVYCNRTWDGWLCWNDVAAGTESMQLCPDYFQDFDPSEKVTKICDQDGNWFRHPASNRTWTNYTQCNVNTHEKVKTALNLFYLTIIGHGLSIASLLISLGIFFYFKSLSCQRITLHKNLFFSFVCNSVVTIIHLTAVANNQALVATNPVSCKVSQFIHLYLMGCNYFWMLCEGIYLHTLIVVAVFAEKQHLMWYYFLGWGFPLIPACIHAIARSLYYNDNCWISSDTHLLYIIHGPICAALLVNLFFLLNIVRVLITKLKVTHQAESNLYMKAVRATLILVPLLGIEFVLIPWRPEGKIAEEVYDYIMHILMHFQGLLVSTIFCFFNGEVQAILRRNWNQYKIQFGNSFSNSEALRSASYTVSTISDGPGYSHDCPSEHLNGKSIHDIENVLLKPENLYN
Sequence (O60896 24-148): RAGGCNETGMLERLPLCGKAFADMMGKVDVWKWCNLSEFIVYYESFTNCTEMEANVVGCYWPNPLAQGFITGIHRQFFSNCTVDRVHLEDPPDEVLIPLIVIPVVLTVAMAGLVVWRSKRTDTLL
Assay: AM2 receptor antagonist activity measured by cAMP assay (HTRF)
Type: cell-based
Details: GeneBLAzer CALCRL:RAMP3-CRE-bla Freestyle 293F cells; agonist human adrenomedullin; read-out: hAM2-R IC50 Ave
Numbered stars: 1 amine (or outer) side, 2 acyl side, 3 side chain; on linkers, the order of the positions; unused ones are H or OH. Bridge positions count the residues as written; N and C are the ends. Square brackets hold non-standard residues; d marks the D form. Peptide text beside a SMILES is read from it. * marks the point of attachment. Phe(2-CONH2) = NC(=O)c1ccccc1C[C@H](N)C(=O)O; X5 = O=C([C@H](Cc1ccc(CO)cc1)N[*:1])[*:2]; Picolinoyl(3,5-F2) = O=C(c1ncc(F)cc1F)*; Picolinoyl(5-F) = O=C(c1ccc(F)cn1)*; Orn(iPr) = CC(C)NCCC[C@H](N)C(=O)O; Dab(iPr) = CC(C)NCC[C@H](N)C(=O)O; Benzoyl(4-F) = O=C(c1ccc(F)cc1)*; Oxazole2carbonyl = O=C(c1ncco1)*; 3Pal = N[C@@H](Cc1cccnc1)C(=O)O; Picolinoyl = O=C(c1ccccn1)*; ΔPro = O=C(O)[C@@H]1C=CCN1; Orn = NCCC[C@H](N)C(=O)O; X2 = Cc1n[nH]c(C(=O)*)n1; X11 = O=C(c1ncccc1Cl)*; X1 = O=C(c1ncccc1F)*; X9 = Nc1cccnc1C(=O)*
test readout: pIC50
Answers are plain numbers, as −log10 of the molar value.

Would you please look over these solved cases?
>  <compound>
CC(C)NCCC[C@@H]1NC(=O)[C@@H](NC(=O)[C@H](Cc2ccc(O)cc2)NC(=O)[C@H](NC(=O)c2ccc(F)cn2)C(C)C)CSSC[C@@H](C(=O)N[C@@H](Cc2cccnc2)C(N)=O)NC(=O)[C@H](Cc2ccccc2)NC(=O)[C@@H]2CCCN2C(=O)CNC(=O)[C@H](C(C)C)NC(=O)[C@H](CC(=O)O)NC1=O [Compound 14] ({Picolinoyl(5-F)}-[dV]YC[Orn(iPr)]DVGPFC[3Pal]-NH2; disulfide 3-10)

>  <reported>
7.70

$$$$
>  <compound>
CC(C)NCCC[C@@H]1NC(=O)[C@@H](NC(=O)[C@H](Cc2ccccc2C(N)=O)NC(=O)[C@H](NC(=O)c2ncco2)C(C)C)CSSC[C@@H](C(=O)N[C@@H](Cc2cccnc2)C(N)=O)NC(=O)[C@H](Cc2ccc(O)cc2)NC(=O)[C@@H]2C=CCN2C(=O)CNC(=O)[C@H](C(C)C)NC(=O)[C@H](CC(=O)O)NC1=O [Compound 57] (Oxazole2carbonyl-[dV][Phe(2-CONH2)]C[Orn(iPr)]DVG[ΔPro]YC[3Pal]-NH2; disulfide 3-10)

>  <reported>
6.20

$$$$

Please supply pIC50 for each of the following items, keeping them in order.
1. CC(C)[C@@H]1NC(=O)[C@H](CC(=O)O)NC(=O)[C@H](CCCN)NC(=O)[C@@H](NC(=O)[C@H](Cc2ccc(O)cc2)NC(=O)[C@H](NC(=O)c2ncccc2F)C(C)C)CSSC[C@@H](C(=O)N[C@@H](Cc2cccnc2)C(N)=O)NC(=O)[C@H](Cc2ccc(CO)cc2)NC(=O)[C@@H]2CCCN2C(=O)CNC1=O [Compound 29] (X1-[dV]YC[Orn]DVGP[X5]C[3Pal]-NH2; disulfide 3-10)
2. CC(C)[C@@H]1NC(=O)[C@H](CC(=O)O)NC(=O)[C@H](CCCNC(=N)N)NC(=O)[C@@H](NC(=O)[C@H](Cc2ccc(O)cc2)NC(=O)[C@H](NC(=O)c2ncccc2N)C(C)C)CSSC[C@@H](C(=O)N[C@@H](Cc2cccnc2)C(N)=O)NC(=O)[C@H](Cc2ccccc2)NC(=O)[C@@H]2CCCN2C(=O)CNC1=O [Compound 36] (X9-[dV]YCRDVGPFC[3Pal]-NH2; disulfide 3-10)

6.83
7.80

Please supply pIC50 for each of the following items, keeping them in order.
1. CC(C)[C@@H]1NC(=O)[C@H](CC(=O)O)NC(=O)[C@H](CCCNC(=N)N)NC(=O)[C@@H](NC(=O)[C@H](Cc2ccc(O)cc2)NC(=O)[C@H](NC(=O)c2ccc(F)cc2)C(C)C)CSSC[C@@H](C(=O)N[C@@H](Cc2cccnc2)C(N)=O)NC(=O)[C@H](Cc2ccccc2)NC(=O)[C@@H]2C=CCN2C(=O)CNC1=O [Compound 4] ({Benzoyl(4-F)}-[dV]YCRDVG[ΔPro]FC[3Pal]-NH2; disulfide 3-10)
2. CC(C)NCCC[C@@H]1NC(=O)[C@@H](NC(=O)[C@H](Cc2ccc(O)cc2)NC(=O)[C@H](NC(=O)c2ncc(F)cc2F)C(C)C)CSSC[C@@H](C(=O)N[C@@H](Cc2cccnc2)C(N)=O)NC(=O)[C@H](Cc2ccccc2)NC(=O)[C@@H]2CCCN2C(=O)CNC(=O)[C@H](C(C)C)NC(=O)[C@H](CC(=O)O)NC1=O [Compound 62] ({Picolinoyl(3,5-F2)}-[dV]YC[Orn(iPr)]DVGPFC[3Pal]-NH2; disulfide 3-10)
3. CC(C)NCC[C@@H]1NC(=O)[C@@H](NC(=O)[C@H](Cc2ccc(O)cc2)NC(=O)[C@H](NC(=O)c2ccccn2)C(C)C)CSSC[C@@H](C(=O)N[C@@H](Cc2cccnc2)C(N)=O)NC(=O)[C@H](Cc2ccccc2)NC(=O)[C@@H]2CCCN2C(=O)CNC(=O)[C@H](C(C)C)NC(=O)[C@H](CC(=O)O)NC1=O [Compound 9] (Picolinoyl-[dV]YC[Dab(iPr)]DVGPFC[3Pal]-NH2; disulfide 3-10)
4. Cc1n[nH]c(C(=O)N[C@@H](C(=O)N[C@@H](Cc2ccc(O)cc2)C(=O)N[C@H]2CSSC[C@@H](C(=O)N[C@@H](Cc3cccnc3)C(N)=O)NC(=O)[C@H](Cc3ccccc3)NC(=O)[C@@H]3CCCN3C(=O)CNC(=O)[C@H](C(C)C)NC(=O)[C@H](CC(=O)O)NC(=O)[C@H](CCCNC(=N)N)NC2=O)C(C)C)n1 [Compound 48] (X2-[dV]YCRDVGPFC[3Pal]-NH2; disulfide 3-10)
5. CC(C)NCCC[C@@H]1NC(=O)[C@@H](NC(=O)[C@H](Cc2ccc(O)cc2)NC(=O)[C@H](NC(=O)c2ccccn2)C(C)C)CSSC[C@@H](C(=O)N[C@@H](Cc2cccnc2)C(N)=O)NC(=O)[C@H](Cc2ccc(CO)cc2)NC(=O)[C@@H]2C=CCN2C(=O)CNC(=O)[C@H](C(C)C)NC(=O)[C@H](CC(=O)O)NC1=O [Compound 69] (Picolinoyl-[dV]YC[Orn(iPr)]DVG[ΔPro][X5]C[3Pal]-NH2; disulfide 3-10)
6. CC(C)[C@@H]1NC(=O)[C@H](CC(=O)O)NC(=O)[C@H](CCCNC(=N)N)NC(=O)[C@@H](NC(=O)[C@H](Cc2ccc(O)cc2)NC(=O)[C@H](NC(=O)c2ncccc2Cl)C(C)C)CSSC[C@@H](C(=O)N[C@@H](Cc2cccnc2)C(N)=O)NC(=O)[C@H](Cc2ccccc2)NC(=O)[C@@H]2CCCN2C(=O)CNC1=O [Compound 51] (X11-[dV]YCRDVGPFC[3Pal]-NH2; disulfide 3-10)

1. 7.54
2. 7.07
3. 7.29
4. 6.40
5. 7.19
6. 7.89

Cited source: patent US9969775B2
